procedureDetails: AP1 Signaling Pathway (AID 357);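 further: ME-180 reporter cells stimulated with EGF at its EC50 level; on the % scale 0 is the no-effect control and ±100 the full control effect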
conditionInfo: ME-180 (cervical carcinoma) AP-1-bla reporter, EGF-induced, beta-lactamase ratio, 5 h; at 17.2 µM (top of the series) unless noted
Results filed as inconclusive are left out.
readoutKind: activity change, negative = inhibition (%)

{"columns": ["compound", "unitDescriptor", "readoutNumber"],
 "data": [
  ["CCOC(=O)c1[nH]c2ccccc2c1NC(=O)CN(C)C", "%", 1.77],
  ["COc1cc(C2C(C(C)=O)=C(O)C(=O)N2c2ccc(Br)cn2)ccc1O (stereo unspecified)", "%", 2.47],
  ["COC(=O)CSc1nc(N)c2c3c(sc2n1)CCCC3", "%", -0.00134],
  ["Cc1cc(C)n(C2CCCCC2OC(=O)c2ccccc2)n1 (stereo unspecified)", "%", 7.47],
  ["CCCSc1nc(N2CCOCC2)c2c(c1C#N)CCCC2", "%", 20.8],
  ["COc1ccc(/C(O)=C2/C(=O)C(=O)N(c3ncccn3)C2c2ccc(OC)c(OC)c2)cc1 (stereo unspecified)", "%", 10.2],
  ["N/C(=N\\c1nc2ccccc2o1)NC(=O)c1ccccc1NC(=O)c1ccccc1", "%", 14.1],
  ["CSC1=Nc2sc3c(c2C2=NCCN12)CC(C)(C)OC3", "%", 26],
  ["FC(F)(F)c1cccc(-n2cccc2/C=N/n2cnnc2)c1", "%", 8.38],
  ["CC1(C)Cc2[nH]c(=S)c(C#N)cc2CO1", "%", 8.31],
  ["CCC[C@H]1C[C@H](C(=O)N[C@@H]([C@H]2O[C@@H](SC)[C@@H](O)[C@@H](O)[C@@H]2O)[C@H](C)Cl)N(C)C1", "%", -4.04],
  ["Cc1ccc(Cn2ncc3c(N4CCOCC4)ncnc32)cc1", "%", -2.95],
  ["CC(C)OC(=O)CC1=NC(=O)CS1", "%", 3.43],
  ["CCCCCc1ccc(-c2ccc(=O)[nH]n2)cc1", "%", 7.59],
  ["COc1cc(C2C3C(=O)N(c4ccccc4)C(=O)C3ON2c2ccccc2)ccc1O (stereo unspecified)", "%", 2.35],
  ["Cc1c(=O)n(OCc2c(F)cccc2F)c2ccccc2[n+]1[O-]", "%", -5.17]
]}
